# Test system: Candida albicans
# Measurement protocol: Binding affinity to Candida albicans lumazine synthase
Ka values, listed per item
Value kind: Ka (M⁻¹)

- Chem smiles: "O=c1[nH]c(=O)c2c([nH]1)n(C[C@H](O)[C@H](O)[C@H](O)CO)c(=O)n2CCCOP(=O)(O)O"
  Value kind: "Ka"
  Unit spec: "M⁻¹"
  Numeric readout: "3.53e+06"
- Chem smiles: "O=c1[nH]c(Cl)c(CCCCOP(=O)(O)O)c(=O)[nH]1"
  Value kind: "Ka"
  Unit spec: "M⁻¹"
  Numeric readout: "6.61e+06"
- Chem smiles: "O=c1[nH]c(=O)c2[nH]c(=O)n(C[C@H](O)[C@H](O)[C@H](O)CO)c2[nH]1"
  Value kind: "Ka"
  Unit spec: "M⁻¹"
  Numeric readout: 758000
- Chem smiles: "O=c1[nH]c(=O)c2c([nH]1)n(C[C@H](O)[C@H](O)[C@H](O)CO)c(=O)c(=O)n2CCCCOP(=O)(O)O"
  Value kind: "Ka"
  Unit spec: "M⁻¹"
  Numeric readout: "1.63e+06"
